- System: HeLa Kyoto;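 also: synchronized HeLa Kyoto cells, proteins quantified by TMT10plex mass spectrometry, three biological replicates, mitosis taken 0.5 h after nocodazole release, G1/S directly after double thymidine block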
- experimental details: thermal stability score vs G1/S (z-score of summed log2 fold changes over temperatures); higher = more thermally stable than in G1/S
- test parameters: cell cycle stage: early G1 (4.5 h after nocodazole release)
Form field: thermal stability score (one value per entry).
measurement label: thermal stability score

[[record]]
monomer_sequence = "MSEDEEKVKLRRLEPAIQKFIKIVIPTDLERLRKHQINIEKYQRCRIWDKLHEEHINAGRTVQQLRSNIREIEKLCLKVRKDDLVLLKRMIDPVKEEASAATAEFLQLHLESVEELKKQFNDEETLLQPPLTRSMTVGGAFHTTEAEASSQSLTQIYALPEIPQDQNAAESWETLEADLIELSQLVTDFSLLVNSQQEKIDSIADHVNSAAVNVEEGTKNLGKAAKYKLAALPVAGALIGGMVGGPIGLLAGFKVAGIAAALGGGVLGFTGGKLIQRKKQKMMEKLTSSCPDLPSQTDKKCS [STX17]"
measurement_label = "thermal stability score"
result = -0.17

[[record]]
monomer_sequence = "MAGDSEQTLQNHQQPNGGEPFLIGVSGGTASGKSSVCAKIVQLLGQNEVDYRQKQVVILSQDSFYRVLTSEQKAKALKGQFNFDHPDAFDNELILKTLKEITEGKTVQIPVYDFVSHSRKEETVTVYPADVVLFEGILAFYSQEVRDLFQMKLFVDTDADTRLSRRVLRDISERGRDLEQILSQYITFVKPAFEEFCLPTKKYADVIIPRGADNLVAINLIVQHIQDILNGGPSKRQTNGCLNGYTPSRKRQASESSSRPH [UCK2]"
measurement_label = "thermal stability score"
result = 0.367

[[record]]
monomer_sequence = "MTSELDIFVGNTTLIDEDVYRLWLDGYSVTDAVALRVRSGILEQTGATAAVLQSDTMDHYRTFHMLERLLHAPPKLLHQLIFQIPPSRQALLIERYYAFDEAFVREVLGKKLSKGTKKDLDDISTKTGITLKSCRRQFDNFKRVFKVVEEMRGSLVDNIQQHFLLSDRLARDYAAIVFFANNRFETGKKKLQYLSFGDFAFCAELMIQNWTLGAVGEAPTDPDSQMDDMDMDLDKEFLQDLKELKVLVADKDLLDLHKSLVCTALRGKLGVFSEMEANFKNLSRGLVNVAAKLTHNKDVRDLFVDLVEKFVEPCRSDHWPLSDVRFFLNQYSASVHSLDGFRHQALWDRYMGTLRGCLLRLYHD [FIBP]"
measurement_label = "thermal stability score"
result = -0.876

